Overview of reported Number of Assigned Spectra, K562 Prep 2 across a group of molecules:
Tested on: Hsp90 complexes in K562 cell extract
ASSAY SUMMARY: Nano-LC-MS/MS of PU-beads pull-downs
Format: binding
SETTINGS: protein identified in PU-beads pull-down of K562 cell extract, Prep 2; QSTAR-Elite QTof MS
Just the number.

Find the recorded Number of Assigned Spectra, K562 Prep 2 belonging to MLF2 (protein, UniProt Q15773 1-248, looked up) Myeloid leukemia factor 2: MFRFMRDVEPEDPMFLMDPFAIHRQHMSRMLSGGFGYSPFLSITDGNMPGTRPASRRMQQAGAVSPFGMLGMSGGFMDMFGMMNDMIGNMEHMTAGGNCQTFSSSTVISYSNTGDGAPKVYQETSEMRSAPGGIRETRRTVRDSDSGLEQMSIGHHIRDRAHILQRSRNHRTGDQEERQDYINLDESEAAAFDDEWRRETSRFRQQRPLEFRRLESSGAGGRRAEGPPRLAIQGPEDSPSRQSRRYDW and report it.
0

Find the recorded Number of Assigned Spectra, K562 Prep 2 belonging to PHB (protein, UniProt P35232 2-272, looked up) Prohibitin 1: AAKVFESIGKFGLALAVAGGVVNSALYNVDAGHRAVIFDRFRGVQDIVVGEGTHFLIPWVQKPIIFDCRSRPRNVPVITGSKDLQNVNITLRILFRPVASQLPRIFTSIGEDYDERVLPSITTEILKSVVARFDAGELITQRELVSRQVSDDLTERAATFGLILDDVSLTHLTFGKEFTEAVEAKQVAQQEAERARFVVEKAEQQKKAAIISAEGDSKAAELIANSLATAGDGLIELRKLEAAEDIAYQLSRSRNITYLPAGQSVLLQLPQ and report it.
0

Find the recorded Number of Assigned Spectra, K562 Prep 2 belonging to GPS2 (protein, UniProt Q13227 1-327, looked up) G protein pathway suppressor 2: MPALLERPKLSNAMARALHRHIMMERERKRQEEEEVDKMMEQKMKEEQERRKKKEMEERMSLEETKEQILKLEEKLLALQEEKHQLFLQLKKVLHEEEKRRRKEQSDLTTLTSAAYQQSLTVHTGTHLLSMQGSPGGHNRPGTLMAADRAKQMFGPQVLTTRHYVGSAAAFAGTPEHGQFQGSPGGAYGTAQPPPHYGPTQPAYSPSQQLRAPSAFPAVQYLSQPQPQPYAVHGHFQPTQTGFLQPGGALSLQKQMEHANQQTGFSDSSSLRPMHPQALHPAPGLLASPQLPVQMQPAGKSGFAATSQPGPRLPFIQHSQNPRFYHK and report it.
0

# credit: patent US20220074941A1
